System: LPESG (Abz-LPESGK(Dnp)-CONH2)
experiment: In vitro sortase kinetics HPLC assay, LPESG substrate
Format: biochemical
condition label: ratio of kcat/Km between 4S (LPESG) and wt (LPETG) substrates
observation type: specificity (relative cat. Efficiency, fold)
Form entry: value (fold) — number only.

[ask] Dear colleague, I am looking for the recorded specificity (relative cat. Efficiency, fold) of the following molecule: 4S.6C: 5mut + N98D A104V A118T F122A K134R I182V E189F (protein) QAKPQIPKDKSKVAGYIEIPDADIKEPVYPGPATREQLDRGVSFVEENESLDDQNISITGHTAIDRPNYQFTNLRAAKKGSMVYFKVGNETRKYKMTSIRNVKPTAVEVLDEQKGKDKQLTLVTCDDYNFETGVWETRKIFVATEVK
[reply] 18.52

Values from patent US10202593B2
